# system.under.test: T1, human IL4 (human, UniProt P05112 25-153, biotinylated in the SPR and competition assays (sites not given))
# T1 sequence: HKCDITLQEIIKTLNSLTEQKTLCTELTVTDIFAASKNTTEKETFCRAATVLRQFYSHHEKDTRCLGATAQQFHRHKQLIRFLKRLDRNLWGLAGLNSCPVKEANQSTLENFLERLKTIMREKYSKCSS
# experiment: cell-based or functional assay

binder	unit.of.measure	Type 1 Complex inhibition IC50
C06_44F6 (designed binder, ankyrin repeat protein; His-tagged, IMAC-purified) DLGKELLEAARAGQDDEVHILMANGADVNALDDSGYTPLHLAAEDGHLEIVEVLLKHGADVNAMDNIGNTSLHLAAFDGHLEIVEVLLKYGADVNAVDLAGVTPLHVAAFYGHLEIVEVLLKHGADVNAQDKFGKTAFDISIDNGNEDLAEILQKLN	pM	24.9
C06_20B8 (designed binder, ankyrin repeat protein; His-tagged, IMAC-purified) DLGKKLLEAASAGQDDEVHILMANGADVNAVDHDGFTPLHLAAADGHLEIVEVLLKHGADVNADDNFGWTPLHLAAFFGHLEIVEVLLKHGADVNAKDQTGLTPLHLAAVDGHLEIVEVLLKHGADVNAQDKFGKTAFDISIDNGNEDLAEILQKLN	pM	3.8
C06_43G2 (designed binder, ankyrin repeat protein; His-tagged, IMAC-purified) DLGKKLLEAARAGQDDEVRILMANGADVNAKDVTGETPLHLASWEGHLEIVEVLLKHGADVNAQDLFGITPLHLAAATDGHLEIVEVLLKNGADVNATDSNGFTPLHLAASYGHLEIVDVLLKNGADVNAHDFDGFTPLHLAASWGHLEIVEVLLKYGADVNAQDKFGKTAFDISIDNGNEDLAEILQKLN	pM	0.8
C06_44C12 (designed binder, ankyrin repeat protein; His-tagged, IMAC-purified) DLGKKLLEAASAGQDDEVHILMANGADVNALDDSGYTPLHLAAEDGHLEIVEVLLKHGADVNAADRMGDTPLHLAAFVGHLEIVEVLLKYGADVNAVDLAGVTPLHVAAFYGHLEIVEVLLKYGADVNAQDKFGKTAFDISIDNGNEDLAEILQKLN	pM	1.7
C06_42A11 (designed binder, ankyrin repeat protein; His-tagged, IMAC-purified) DLGKKLLEAASVGQDDEVHILMANGADVNATDAWGLTPLHLAALLGHLEIVEVLLKHGADVNAHDETGFTPLHLAAVEGHLEIVEVLLKYGADVNASDILGRTPLHLAANFGHLEIVEVLLKHGADVNAQDKFGKTAFDISIDNGNEDLAEILQKLN	pM	3.2
C06_6E9 (designed binder, ankyrin repeat protein; His-tagged, IMAC-purified) DLGKKLLEAARAGQDDEVRILMANGADVNAIDSDGTTPLHLAAMDGHLEIVEVLLKYGADVNAVDWNGDTPLHLAAVDGHLEIVEVLLKYGADVNAQDNLGDTPLHLAAYYGHLEIVEVLLKHGADVNASDFHGITPLHLAAFSGHLEIVEVLLKYGADVNAQDKFGKTAFDISIDNGNEDLAEILQKLN	pM	0.4
C06_28E5 (designed binder, ankyrin repeat protein; His-tagged, IMAC-purified; also called benchmark AR protein) DLGKKLLEAARAGQDDEVRILMANGADVNAADDSGITPLHLAAEDGHLEIVEVLLKYGADVNAQDNLGDTPLHLAAWTGHLEIVEVLLKNGADVNAYDISGITPLHLAAFYGHLEIVEVLLKHGADVNAQDKFGKTAFDISIDNGNEDLAEILQKLN	pM	1.5
C06_53G6 (designed binder, ankyrin repeat protein; His-tagged, IMAC-purified) NLGKKLLEAARAGQDDEVRILMANGADVNATDDWGDTLLHLAATDGHLEIVEVLLKYGADVNANDAIGDTPLHLAALYGHLEIVEVLLKYGADVNATDLHGFTPLHLAAFWGHLEIVEVLLKHGADVNAQDKFGKTAFDISIDNGNEDLAEILQKLN	pM	0.9
